assay: NCI Yeast Anticancer Drug Screen. Data for the bub3 strain (AID 167); details: S. cerevisiae bub3 mutant strain, at 100.0 µM, active compounds read high
The panel holds about 79,000 compounds, 15% with a hit somewhere; the sample as a whole holds those more often.
Measured growth inhibition accompanies every entry in the list below.
Give the number; % is assumed, so skip it.

Recorded growth inhibition, per entry:
COc1cc(O)c(O)c(C(C)(C)C)c1: 17
O=c1nc2n(Cc3ccccc3)c3ccccc3nc-2c(=O)[nH]1: -8
O=C(NNc1ccccc1)C(O)C(O)C(O)C(O)C(O)CO (stereo not drawn): 92
CCc1cc(O)c(Cl)c(C)c1Cl: 85

Consider the molecule shown here: "O=C(O)CNC(=S)Nc1ccccc1" What is its recorded growth inhibition? 89

One more molecule: "Cc1c(C(C)C)cc(OCCO)cc1C(C)C" 22

One more molecule: Oc1ccc2c(c1)C(O)CCCC2 (stereo not drawn) 35

One more molecule: "CC[N+](CC)(CC)c1ccccc1" 11

One more molecule: "COc1cc([C@@H]2c3cc4c(cc3[C@@H](Nc3ccc(NC(=O)c5cc([N+](=O)[O-])cn5C)cc3)[C@H]3COC(=O)[C@H]23)OCO4)cc(OC)c1O" 43

One more molecule: "O=C(O)Cc1cc(F)ccc1C(=O)O" 17

One more molecule: "COc1ccc(N=CN(C)C)c(C)c1" 94

One more molecule: "CC(C)(C)N=C(NO)c1ccccc1" 27

One more molecule: "CCc1c[n+]([O-])c(C)cc1[N+](=O)[O-]" -2

====

experiment: NCI Yeast Anticancer Drug Screen. Data for the rad18 strain (AID 177); settings: S. cerevisiae rad18 mutant growth inhibition; at 33.0 µM
This is part of a sample that, as a whole, favours compounds with a hit. Of some 79,000 tested, about 15% had one in any assay. The source made the active and inactive calls. No stated cut-off is given here; in the data, active means growth inhibition above about 70%; inactive means the rest.
Outcome field: choose from active, inactive

Please let me know the test result on file for CC(O)=NC(Cc1ccc2ccccc2c1)C(O)=NC(Cc1ccc(Cl)cc1)C(O)=NC(Cc1c[nH]c2ccccc12)C(O)=NC(CO)C(O)=NC(Cc1ccc(O)cc1)C(O)=NC(CCCN=C(N)N)C(O)=NC(CC(C)C)C(O)=NC(CCCN=C(N)N)C(=O)N1CCCC1C(O)=NC(C)C(=N)O (stereo unspecified) . inactive

One more molecule: O=C1C=C(c2ccccc2)OC1(c1ccccc1)N1CCOCC1 (stereo unspecified) inactive

One more molecule: "c1ccc(Cc2cc(-c3ccccc3)n[nH]2)cc1" inactive

One more molecule: "O=c1ccc(=O)n(-c2ccccc2)[nH]1" active

One more molecule: "COc1cc(CSc2ccc(O)cc2)cc(O)c1O" inactive

One more molecule: "O=C1C=C(N2CCN(c3ccccn3)CC2)C(=O)c2c(O)ccc(O)c21" inactive

One more molecule: O=C1OC(OC/C(Br)=C(\Br)COC2OC(=O)C(Cl)=C2Cl)C(Cl)=C1Cl (stereo unspecified) inactive

One more molecule: "CCCCCCCCCCCCCCCCCC(=O)NCCCN(C)C" active

One more molecule: OC(CCNCc1ccccc1)c1ccc2ccccc2c1 (stereo unspecified) active

====

test: NCI Yeast Anticancer Drug Screen. Data for the mec2-1 strain (AID 157); settings: S. cerevisiae mec2-1 strain, at 11.0 µM, active compounds read high
The panel holds about 79,000 compounds, 15% with a hit somewhere; the sample as a whole holds those more often.
Measured metric: growth inhibition (%)
Give the number; % is assumed, so skip it.

Recorded growth inhibition, per entry:
COc1cccc(/C=N/C(/N=C/c2cccc(OC)c2O)c2cccc(OC)c2O)c1O: 8
O=C(O)Cc1cc(F)ccc1C(=O)O: 3
CC(=O)Nc1ccc2c(c1)-c1ccccc1C2=O: 4

Consider the molecule shown here: "O=C(O)c1ccc(N2C(=O)C=CC2=O)cc1" What is its recorded growth inhibition? 0

One more molecule: "COc1cc2cc3c4cc(OC)c(OC)cc4cc[n+]3c(C)c2cc1OC" -7

One more molecule: "CC(C)OC(=O)Nc1ccc2nc(-c3cscn3)[nH]c2c1" 8

One more molecule: "O=c1[nH]c(-c2ccccc2)nc2c1sc1nc3ccccc3n12" -30

One more molecule: "O=c1ssc(=Nc2ccccc2)n1-c1ccccc1" -3

One more molecule: "CN(C)[C@@H]1C(=O)C(C(N)=O)=C(O)[C@@]2(O)C(=O)C3=C(O)c4c(O)cccc4C[C@H]3C[C@@H]12" 1

One more molecule: "N#CNC(N)=Nc1cc2ccccc2c2ccccc12" 58

One more molecule: "COc1ccc(C/C=N/Nc2ccc([N+](=O)[O-])cc2)cc1OC" 4

====

assay: NCI Yeast Anticancer Drug Screen. Data for the sgs1 mgt1 strain (AID 161);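 note: 0% = growth of cultures given vehicle only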; conditions: S. cerevisiae sgs1 mgt1 strain, at 5.0 µM (retest, dose inferred, filed as 0.5), active compounds read high
About 79,000 compounds went through this panel and 15% of them were active in at least one assay; those are over-represented in the sample as a whole.
Measured growth inhibition accompanies every entry in the list below.
Give the number; % is assumed, so skip it.

CC(C)(C)[Si](C)(C)OCC1CCC(n2cnc3c(NC(=O)c4ccccc4)ncnc32)O1 (stereo not given): -1

Consider the compound shown here: "CSc1nc(C)c(CCOC(C)=O)c(N=P(c2ccccc2)(c2ccccc2)c2ccccc2)n1" What is its recorded growth inhibition? -2

One more compound: Cc1cccc(C(C)(C)C)c1NC(=O)C(C#N)C1=C(Cl)C(=O)c2ccccc2C1=O (stereo not given) 46

One more compound: "c1ccc(Cc2cc(-c3ccccc3)n[nH]2)cc1" -64

One more compound: O=C1/C(=C/c2ccccc2)CCCC1CN1CCCCC1 (stereo not given) 40

One more compound: "Cc1cc(C(C)(C)CC(C)(C)C)ccc1O" -14

One more compound: "NC1CCCCC1N.Nc1c(N=Nc2ccc(-c3ccc(N=Nc4cc(S(=O)(=O)[O-])c5ccccc5c4N)cc3)cc2)cc(S(=O)(=O)[O-])c2ccccc12.[OH3+].[OH3+].[Pt+4]" 38

One more compound: "CSc1nnc(SC)nn1" -10

One more compound: "CC1=C(SCc2ccccc2)C(=O)c2ccccc2C1=O" -23

One more compound: CCOC(=O)[C@H]1Nc2ccc(OC)cc2C2c3ccccc3CC21 (stereo not given in full) 8

====

test: NCI Yeast Anticancer Drug Screen. Data for the mlh1 strain (AID 171);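 note: 0% = growth of vehicle-treated control cultures of the same strain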; details: S. cerevisiae mlh1 strain growth inhibition; at 100.0 µM
This is part of a sample that, as a whole, favours compounds with a hit. Of some 79,000 tested, about 15% had one in any assay. The source made the active and inactive calls. No stated cut-off is given here; in the data, active means growth inhibition above about 70%; inactive means the rest.
Outcome field: choose from active, inactive

Some solved cases for reference:
Cc1nc2c(Br)cc(Br)cc2c(=O)n1-c1ccccc1NC1OCC(O)C(O)C1O (configuration not stated): active
Cc1c2ccnc(C(=O)NCCN(C)C)c2cc2c3cc(O)ccc3n(C)c12: inactive
O=C1C=C(Cl)C(=O)C(c2ccc(Cl)cc2)=C1: active
C=C1C(=O)OC2CC1C(OC(C)=O)C/C(C)=C/CC/C(C)=C\CCC2(C)O (configuration not stated): active
Cc1ccc(CC2(OCCN(C)C)CCC(C(C)(C)C)CC2)cc1 (configuration not stated): active

Please let me know the test result on file for "O=[N+]([O-])c1cc(F)c(F)cc1Sc1cc(F)c(F)cc1[N+](=O)[O-]" . active

One more molecule: C[C@]12CC[C@H](O)CC1=CC[C@@H]1C2CC[C@]2(C)C(=O)NC(=O)CC12 (some centres not stated) active

One more molecule: "Cc1cc(S(=O)(=O)Nc2nnc3cnc4ccccc4n23)c(S)cc1Cl" inactive

One more molecule: "CS(=O)(=O)SCc1ccc([N+](=O)[O-])cc1" active

One more molecule: "Cc1ccc(NCCNCCO)c2c(=O)c3cc(O)ccc3sc12" active

One more molecule: "Nc1n[n+]([O-])c2ccc(Cl)cc2[n+]1[O-]" active

One more molecule: CCC1(OC(=O)CN2CCN(CCO)CC2)C(=O)OCc2c1cc1n(c2=O)Cc2cc3ccccc3nc2-1 (configuration not stated) inactive

====

test: NCI Yeast Anticancer Drug Screen. Data for the rad50EPP+ strain (AID 151);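 note: 0% = growth of vehicle-treated control cultures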; settings: S. cerevisiae rad50 mutant strain, at 11.0 µM, active compounds read high
Compounds without any hit were thinned out: in the full panel of roughly 79,000, 15% have a hit.
Label Not met if growth inhibition falls below 10%; label Met in every other case.

Some solved cases for reference:
Cc1nc2ccccc2nc1NNc1ccccc1: Met
CCOC(=O)c1[nH]cc(C)c1-c1cccn1-c1ccc(Cl)cc1[N+](=O)[O-]: Met
CCCC/C=C/C(C)(C(=O)OCC)C(=O)OCC: Not met

Now look at this one.
Decide: is the reported value of growth inhibition for "Cc1cc(C)nc(NS(=O)(=O)c2ccc(Nc3c4ccccc4nc4c(C(=O)NCCO)cccc34)cc2)n1" equal to or greater than 10%? Not met

Ref: PubChem BioAssay (NCI)
